Ref: PubChem BioAssay AID330

Reported values of T/C for individual entries
Test system: P388 leukemia ip, CD2F1 mice, survival T/C
Experiment: NCI In Vivo Anticancer Drug Screen. Data for tumor model P388 Leukemia (intraperitoneal) in CD2F1 (CDF1) mice
Details: endpoint: median survival time; dose: 400.0 mg/kg/injection; schedule: Q04DX003 (ip); vehicle: Klucel (hydroxypropylcellulose) (HPC); higher = longer survival
Inconclusive results and toxic doses are left out.

Fc1ccc(CN2COc3c(ccc4cccnc34)C2)c(F)c1 = 89 % of control
Cc1n[nH]c(=O)[nH]c1=O = 90 % of control
C=CCSc1nc2ccc(N=Cc3ccccc3O)cc2s1 = 92 % of control
COc1ccc(C(=O)/C=C/c2ccc(OC)c(OC)c2OC)c(O)c1 = 90 % of control
CN(C)c1ccc(C(=O)C(=O)c2ccccc2)cc1 = 100 % of control
FC(F)(F)C1=C(C(F)(F)F)OP23(OCCC(CO2)O3)O1 (configuration not stated) = 103 % of control

Now consider a different molecule.
-- ask Query: T/C; subject: O=NN1CC23C=CCCC2(CCCC3)C1 (configuration not stated)
-- reply 104 % of control
